- experimental-protocol: Survival of healthy BALB/C rats after i.p. administration
- conditions-used: rat, in vivo, ip, 18 mg/kg, during the second week
measure-name: mortality (%)
Give the number; % is assumed, so skip it.

Enquiry: So what does the record say about mortality for COc1cccc2c1C(=O)c1c(O)c3c(c(O)c1C2=O)C[C@@](O)(C(=O)CO)C[C@@H]3O[C@H]1C[C@H](N)[C@H](O)[C@H](C)O1 ?
Return: 100

---

- experimental-protocol: Survival of healthy BALB/C rats after i.v. administration
- conditions-used: rat, in vivo, iv, 16 mg/kg, during the second week
measure-name: mortality (%)
Give the number; % is assumed, so skip it.

Enquiry: So what does the record say about mortality for COc1cccc2c1C(=O)c1c(O)c3c(c(O)c1C2=O)C[C@@](O)(C(=O)CO)C[C@@H]3O[C@H]1C[C@H](N)[C@H](O)[C@H](C)O1 ?
Return: 100

---

- experimental-protocol: Encapsulation of DXR in liposomes (Sephadex G-50M)
- Type: physicochemical
- conditions-used: VET liposomes PL:PG:CHOL:DXR (50:50:50:15), anti-oxidant varied
measure-name: % encapsulation (Table III) (%)
Give the number; % is assumed, so skip it.

Enquiry: So what does the record say about % encapsulation (Table III) for COc1cc2c(cc1O)OC(C)(C)CC2 ?
Return: 88

Enquiry: So what does the record say about % encapsulation (Table III) for COc1cc2c(cc1O)CCC(C)(C)O2 ?
Return: 87

Enquiry: So what does the record say about % encapsulation (Table III) for COc1cc2c(cc1OCC(F)(F)F)OC(C)(C)CC2 ?
Return: 90

Enquiry: So what does the record say about % encapsulation (Table III) for CC1(C)CCc2cc(O)c(OCC(F)(F)F)cc2O1 ?
Return: 83

Enquiry: So what does the record say about % encapsulation (Table III) for COc1cc2c(cc1O)C=CC(C)(C)O2 ?
Return: 85

Enquiry: So what does the record say about % encapsulation (Table III) for CC1(C)C=Cc2cc(O)c(OCC(F)(F)F)cc2O1 ?
Return: 84

Enquiry: So what does the record say about % encapsulation (Table III) for COc1cc2c(cc1OC)OC(C)(C)CC2 ?
Return: 86

Enquiry: So what does the record say about % encapsulation (Table III) for COc1cc2c(cc1OC)OC(C)(C)C=C2 ?
Return: 89
